SYSTEM: CFTR (Homo sapiens)
Construct: endogenous in cells; host or cells: T84 human colonic cells (ECACC)
Sequence (P13569 whole entry): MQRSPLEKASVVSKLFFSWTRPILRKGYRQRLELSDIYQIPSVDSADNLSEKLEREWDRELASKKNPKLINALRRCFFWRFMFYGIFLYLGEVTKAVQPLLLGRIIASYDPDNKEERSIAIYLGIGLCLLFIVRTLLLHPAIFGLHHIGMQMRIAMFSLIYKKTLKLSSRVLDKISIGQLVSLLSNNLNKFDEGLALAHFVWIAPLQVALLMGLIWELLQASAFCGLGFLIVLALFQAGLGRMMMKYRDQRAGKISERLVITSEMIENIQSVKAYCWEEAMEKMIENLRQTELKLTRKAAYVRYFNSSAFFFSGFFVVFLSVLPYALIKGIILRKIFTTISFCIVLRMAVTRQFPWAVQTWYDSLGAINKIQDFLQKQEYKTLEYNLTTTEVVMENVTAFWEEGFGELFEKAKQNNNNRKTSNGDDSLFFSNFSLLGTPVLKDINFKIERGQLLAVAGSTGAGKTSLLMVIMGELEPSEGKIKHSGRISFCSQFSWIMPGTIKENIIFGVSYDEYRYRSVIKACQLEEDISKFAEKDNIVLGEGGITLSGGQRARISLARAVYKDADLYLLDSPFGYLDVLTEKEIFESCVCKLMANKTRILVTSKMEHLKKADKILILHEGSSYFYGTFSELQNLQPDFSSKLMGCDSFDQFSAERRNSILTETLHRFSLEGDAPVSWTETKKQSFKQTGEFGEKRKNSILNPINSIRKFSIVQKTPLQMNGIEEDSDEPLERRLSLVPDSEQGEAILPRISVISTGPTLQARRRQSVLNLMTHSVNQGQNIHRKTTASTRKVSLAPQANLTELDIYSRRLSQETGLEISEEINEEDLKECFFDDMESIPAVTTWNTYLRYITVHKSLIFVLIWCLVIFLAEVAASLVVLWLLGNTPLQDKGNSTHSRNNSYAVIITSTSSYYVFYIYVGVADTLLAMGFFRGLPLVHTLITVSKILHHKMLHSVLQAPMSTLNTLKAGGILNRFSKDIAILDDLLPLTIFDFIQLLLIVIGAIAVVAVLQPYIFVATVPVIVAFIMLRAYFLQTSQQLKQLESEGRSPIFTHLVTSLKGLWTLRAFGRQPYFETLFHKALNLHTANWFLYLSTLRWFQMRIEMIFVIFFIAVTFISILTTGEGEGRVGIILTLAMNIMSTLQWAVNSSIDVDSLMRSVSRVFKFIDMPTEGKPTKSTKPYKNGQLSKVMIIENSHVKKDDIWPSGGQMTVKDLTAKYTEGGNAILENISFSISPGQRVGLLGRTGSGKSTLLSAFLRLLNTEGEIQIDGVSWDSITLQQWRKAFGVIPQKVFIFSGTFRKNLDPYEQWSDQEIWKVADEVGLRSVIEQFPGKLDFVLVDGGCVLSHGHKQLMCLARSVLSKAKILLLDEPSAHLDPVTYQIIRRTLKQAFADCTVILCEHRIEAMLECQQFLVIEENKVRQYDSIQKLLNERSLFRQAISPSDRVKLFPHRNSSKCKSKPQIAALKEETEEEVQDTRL
ASSAY_COMMENT: T84 assay (FLIPR membrane potential dye, forskolin/IBMX-stimulated CFTR channel activity)
Type: cell-based
TEST_PARAMETERS: oxadiazole-containing compounds (a series), average of at least 2 runs unless annotated n = 1, read-out: IC50
# class 1 = IC50 below 8 µM (exclusive); class 0 = IC50 at/above 8 µM

{"MOLECULE": "CC(C)(C)c1ccc(CNC(=O)c2nc(-c3cc(Cl)c(O)c(Cl)c3)no2)cc1 [136a]", "CAT": "class 1"}
{"MOLECULE": "COc1ccccc1N1CCN(C(=O)c2nc(-c3cc(Br)c(O)c(Br)c3)no2)CC1 [26a]", "CAT": "class 0"}
{"MOLECULE": "O=C(c1nc(-c2cc(Br)c(O)c(Br)c2)no1)N(Cc1cccc(C(F)(F)F)c1)Cc1cccc(C(F)(F)F)c1 [21a]", "CAT": "class 0"}
{"MOLECULE": "O=C(c1nc(-c2cc(Cl)c(O)c(Cl)c2)no1)N1CCN(c2cccc(C(F)(F)F)c2)CC1", "CAT": "class 1"}
{"MOLECULE": "CCOc1ccc(Oc2ccc(CNC(=O)c3nc(-c4cc(Cl)c(O)c(Cl)c4)no3)cc2)cc1Cl [184a]", "CAT": "class 0"}
{"MOLECULE": "O=C(NCc1ccc(Oc2cccc(F)c2)cc1)c1nc(-c2cc(Cl)c(O)c(Cl)c2)no1 [194a]", "CAT": "class 0"}
{"MOLECULE": "O=C(Nc1ccc(Oc2ccccc2)cc1)c1nc(-c2cc(Br)c(O)c(Br)c2)no1 [104a]", "CAT": "class 0"}
{"MOLECULE": "O=C(c1nc(-c2cc(Cl)c(O)c(Cl)c2)no1)N(Cc1ccccc1)Cc1cccnc1 [167a]", "CAT": "class 0"}
{"MOLECULE": "O=C(c1nc(-c2cc(Br)c(O)c(Br)c2)no1)N1CCN(c2ccc(F)cc2F)CC1 [31a]", "CAT": "class 0"}
{"MOLECULE": "CN(Cc1cccc(-c2ccncc2)c1)C(=O)c1nc(-c2cc(Cl)c(O)c(Cl)c2)no1 [175a]", "CAT": "class 1"}
{"MOLECULE": "CN(Cc1ccc(N2CCOCC2)cc1)C(=O)c1nc(-c2cc(Cl)c(O)c(Cl)c2)no1 [187a]", "CAT": "class 0"}
{"MOLECULE": "CCN(Cc1ccccc1)C(=O)c1nc(-c2cc(Cl)c(O)c(Cl)c2)no1 [140a]", "CAT": "class 0"}
{"MOLECULE": "O=C(NCc1ccccc1F)c1nc(-c2cc(Br)c(O)c(Br)c2)no1 [35a]", "CAT": "class 0"}
{"MOLECULE": "O=C(c1nc(-c2cc(Cl)c(O)c(Cl)c2)no1)N1CCC(Cc2ccccc2)CC1 [204a]", "CAT": "class 0"}
{"MOLECULE": "CN(C)c1cccc(CNC(=O)c2noc(-c3cc(Cl)c(O)c(Cl)c3)n2)c1 [160a]", "CAT": "class 1"}
{"MOLECULE": "O=C(NCc1cccc(C(F)(F)F)c1)c1nc(-c2cc(Br)c(O)c(Br)c2)no1 [27a]", "CAT": "class 0"}
{"MOLECULE": "O=C(NCc1ccc(-c2ccccc2)cc1)c1nc(-c2cc(Cl)c(O)c(Cl)c2)no1 [131a]", "CAT": "class 1"}
{"MOLECULE": "O=C(NCc1ccc(Oc2ccccc2)cc1)c1nc(-c2cc(Br)c(O)c(Br)c2)no1 [13a]", "CAT": "class 0"}
{"MOLECULE": "CN(C)c1ccc(CNC(=O)c2noc(-c3cc(Cl)c(O)c(Cl)c3)n2)cc1 [158a]", "CAT": "class 0"}
{"MOLECULE": "CN(Cc1ccccc1)C(=O)c1nc(-c2cc(Br)c(O)c(Br)c2)no1 [28a]", "CAT": "class 0"}
{"MOLECULE": "CC(C)(C)C(=O)CN(Cc1cccc(C(F)(F)F)c1)C(=O)c1nc(-c2cc(Br)c(O)c(Br)c2)no1", "CAT": "class 1"}
{"MOLECULE": "O=C(NCc1ccc(Cl)c(C(F)(F)F)c1)c1nc(-c2cc(Br)c(O)c(Br)c2)no1 [30a]", "CAT": "class 0"}
{"MOLECULE": "C=CCN(Cc1cccc(C(F)(F)F)c1)C(=O)c1nc(-c2cc(Br)c(O)c(Br)c2)no1 [59a]", "CAT": "class 1"}
{"MOLECULE": "CN(Cc1cccc(C(F)(F)F)c1)C(=O)c1noc(-c2cc(Cl)c(OCC(=O)O)c(Cl)c2)n1 [106a]", "CAT": "class 0"}
{"MOLECULE": "O=C(NCc1ccc(Oc2cc(Cl)cc(Cl)c2)cc1)c1nc(-c2cc(Cl)c(O)c(Cl)c2)no1 [196a]", "CAT": "class 0"}
{"MOLECULE": "O=C(NCc1cccc(-c2ccccc2)c1)c1nc(-c2cc(Cl)c(O)c(Cl)c2)no1 [125a]", "CAT": "class 1"}

meta.source: patent US20100144733A1
